# maps each entry to its % Competition compared to the related control group
assayedSystem: polyclonal antibodies in mouse sera specific for human PCSK9 aa 153-162 or aa 153-165
methodSummary: competition ELISA, 20 ug peptide with sera, plate coated with m2 (competitor)
Your answer should be a plain number; it is taken to be in %.

{"columns": ["binder", "measValue"],
 "data": [
  ["SIPWNLEDIT", 13]
]}

**Query** Which % Competition compared to the related control group reading was recorded for the binder SQPWNLERIL ?
**Result** 69

**Query** Which % Competition compared to the related control group reading was recorded for the binder VIPWNLERTT ?
**Result** 69

**Query** Which % Competition compared to the related control group reading was recorded for the binder VIPWNLERLT ?
**Result** 54
